The reported numbers originate from patent US20210246204A1.

target: human Siglec-7 on primary human monocyte-derived dendritic cells (human, UniProt Q9Y286 19-467); assay: cell-based or functional assay
Sequence (Q9Y286 19-467): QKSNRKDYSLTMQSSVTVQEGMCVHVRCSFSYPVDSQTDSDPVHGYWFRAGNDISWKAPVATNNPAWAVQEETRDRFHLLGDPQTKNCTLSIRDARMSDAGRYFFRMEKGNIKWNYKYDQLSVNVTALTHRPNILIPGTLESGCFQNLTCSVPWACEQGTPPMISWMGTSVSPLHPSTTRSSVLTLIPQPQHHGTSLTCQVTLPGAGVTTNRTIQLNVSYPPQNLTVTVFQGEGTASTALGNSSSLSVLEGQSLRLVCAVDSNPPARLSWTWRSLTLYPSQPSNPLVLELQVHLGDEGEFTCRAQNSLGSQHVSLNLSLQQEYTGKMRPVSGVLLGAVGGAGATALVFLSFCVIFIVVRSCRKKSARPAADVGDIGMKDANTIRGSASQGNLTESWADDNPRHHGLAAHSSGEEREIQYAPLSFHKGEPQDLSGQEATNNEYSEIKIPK
Here, each record is paired with measured Receptor downregulation, (EC50) (pM) data.
Reply numerically in pM, unit not repeated.

Memo: S7AB-H8.21 (antibody, V domains shown) VH: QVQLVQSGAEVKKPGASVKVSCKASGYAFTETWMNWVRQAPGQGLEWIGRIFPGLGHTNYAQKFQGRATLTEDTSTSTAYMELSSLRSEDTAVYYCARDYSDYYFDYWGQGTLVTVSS VL: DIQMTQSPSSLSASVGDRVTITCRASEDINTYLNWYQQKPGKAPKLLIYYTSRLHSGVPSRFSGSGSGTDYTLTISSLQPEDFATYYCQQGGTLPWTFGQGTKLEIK , reported Receptor downregulation, (EC50) (pM): 152

Memo: S7AB-H8.4 (antibody, V domains shown) VH: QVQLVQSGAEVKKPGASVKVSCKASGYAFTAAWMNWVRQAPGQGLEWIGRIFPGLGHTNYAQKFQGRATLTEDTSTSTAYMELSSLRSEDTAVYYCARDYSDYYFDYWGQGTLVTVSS VL: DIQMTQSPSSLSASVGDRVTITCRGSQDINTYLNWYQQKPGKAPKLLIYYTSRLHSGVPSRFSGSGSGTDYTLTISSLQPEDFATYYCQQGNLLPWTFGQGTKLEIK , reported Receptor downregulation, (EC50) (pM): 79.5
